assay: Blood level screening after oral dose; type: in vivo, Sprague-Dawley rats; conditions: male, Sprague-Dawley, plasma; rat, oral gavage 10 mg/kg, 3 hr; read-out: Plasma Levels (μM) 3 hr
Measurement type: concentration at 3 h (µM)

Use these answered entries as a reference point.
Cc1cccc(Cc2nnc(C(=O)C(NC(=O)CN3C(=O)C(c4ccccc4)N(C)C3=O)C(C)C)o2)c1 (stereo not shown) [CE2179] = 0.599
Cc1cccc(Cc2nnc(C(=O)[C@@H](NC(=O)CN3C[C@@H](c4ccccc4)N(C(=O)OCc4ccccc4)CC3=O)C(C)C)o2)c1 [CE2204] = 0.48
Cc1cccc(Cc2nnc(C(=O)C(NC(=O)CN3C(=O)NC(c4ccccc4)C3=O)C(C)C)o2)c1 (stereo not shown) [CE2149] = 0
Cc1cccc(Cc2nnc(C(=O)[C@@H](NC(=O)CN3C(=O)CN=C(c4ccccn4)c4ccccc43)C(C)C)o2)c1 [CE2217] = 0.521

P. Cc1cccc(Cc2nnc(C(=O)[C@@H](NC(=O)CN3C(=O)CN=C(C4CCNCC4)c4ccccc43)C(C)C)o2)c1 [CE2233]
Q. CC(C)[C@H](NC(=O)[C@@H]1CCCN1C(=O)[C@@H](NC(=O)OCc1ccccc1)C(C)C)C(=O)c1nnc(Cc2ccc3c(c2)OCO3)o1 [CE2177]
R. CC(C)[C@H](NC(=O)[C@@H]1CCCN1C(=O)[C@@H](NC(=O)OCc1ccccc1)C(C)C)C(=O)c1noc(Cc2ccc3c(c2)OCO3)n1 [CE2178]
In: // smallest concentration at 3 h at index 0, largest at the end Please, when replying, give the labels in the order that was requested.
Out: P, R, Q

A. CC(=O)N1CC(=O)N(CC(=O)N[C@H](C(=O)c2nnc(Cc3cccc(C)c3)o2)C(C)C)C(=Cc2ccc(N(C)C)cc2)C1=O [CE2111]
B. Cc1cccc(Cc2nnc(C(=O)[C@@H](NC(=O)Cn3c(-c4ccccc4)ncc(N)c3=O)C(C)C)o2)c1 [CE2260]
In: I'd appreciate it if you could identify which of A and B has the greater concentration at 3 h. Please identify the chosen entry by its label.
Out: B
(B: 3.05 µM, A: 0.69 µM)

A. Cc1cccc(Cc2nnc(C(=O)[C@@H](NC(=O)[C@@H]3CCCN3C(=O)[C@@H](NS(C)(=O)=O)C(C)C)C(C)C)o2)c1 [CE2163]
B. COC(=O)N[C@H](C(=O)N1CCC[C@H]1C(=O)N[C@H](C(=O)c1noc(Cc2cccc(C(F)(F)F)c2)n1)C(C)C)C(C)C [CE2214]
In: Would you mind telling me which has the lower recorded concentration at 3 h between A and B ? Please identify the chosen entry by its label.
Out: B

A. CC(C)[C@H](NC(=O)[C@@H]1CCCN1C(=O)[C@@H](NC(=O)OCc1ccccc1)C(C)C)C(=O)c1nnc(Cc2ccc(N(C)C)cc2)o1 [CE2100]
B. CC(C)[C@H](NC(=O)[C@@H]1CCCN1C(=O)[C@@H](NS(C)(=O)=O)C(C)C)C(=O)c1noc(Cc2cccc(C(F)(F)F)c2)n1 [CE2172]
C. Cc1cccc(Cc2nc(C(=O)[C@@H](NC(=O)[C@@H]3CCCN3C(=O)[C@@H](NC(=O)OCc3ccccc3)C(C)C)C(C)C)no2)c1 [CE2055]
In: Rank descending by concentration at 3 h. Please, when replying, give the labels in the order that was requested.
Out: A, B, C
(A: 0.064 µM, B: 0.021 µM, C: 0.002 µM)

---

molecular target: human neutrophil elastase (HNE) (Homo sapiens); experiment: HNE Ki of CE compounds, tested as described in WO 96/16080; format: biochemical; conditions: read-out: HNE Ki
Measurement type: Ki (nM)

I. Cc1cccc(Cc2nnc(C(=O)[C@@H](NC(=O)[C@@H]3CCCN3C(=O)[C@@H](NS(C)(=O)=O)C(C)C)C(C)C)o2)c1
II. CC(C)[C@H](NC(=O)CN1C(=O)CN(Cc2ccccc2)C(=O)[C@@H]1Cc1ccccc1)C(=O)c1noc(Cc2cccc(C(F)(F)F)c2)n1
III. CC(=O)N1CC(=O)N(CC(=O)N[C@H](C(=O)c2nnc(Cc3cccc(C)c3)o2)C(C)C)C(=Cc2ccc(N(C)C)cc2)C1=O
In: Please rank everything listed above by Ki, with the minimum value first. Please, when replying, give the labels in the order that was requested.
Out: I, III, II

---

biological target: human neutrophil elastase (HNE) (Homo sapiens, UniProt P08246); experiment: HNE Ki of CE compounds, tested as described in WO 96/16080; assay type: biochemical; conditions: read-out: HNE Ki
Sequence (P08246 30-267): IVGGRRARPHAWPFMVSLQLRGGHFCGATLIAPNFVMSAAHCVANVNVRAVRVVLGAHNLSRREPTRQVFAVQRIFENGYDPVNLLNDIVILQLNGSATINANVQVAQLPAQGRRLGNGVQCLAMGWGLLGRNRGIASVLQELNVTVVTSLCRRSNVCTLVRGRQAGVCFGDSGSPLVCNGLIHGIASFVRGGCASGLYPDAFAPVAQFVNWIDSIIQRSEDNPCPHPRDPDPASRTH
pKi: −log10 of the molar value.
Measurement type: pKi

Cc1cccc(Cc2nnc(C(=O)C(NC(=O)CN3CC(=O)NC[C@H]3c3ccccc3)C(C)C)o2)c1 (stereo partly shown) [CE2208] = 7.40

A. Cc1cccc(Cc2nnc(C(=O)[C@@H](NC(=O)CN3C(=O)N[C@H](c4ncc[nH]4)C3=O)C(C)C)o2)c1 [CE2257]
B. Cc1cccc(Cc2nnc(C(=O)[C@@H](NC(=O)CN3C(=O)NC4(CCCCC4)C3=O)C(C)C)o2)c1 [CE2241]
In: I'd appreciate it if you could identify which of A and B has the greater pKi. Please identify the chosen entry by its label.
Out: B

P. Cc1cccc(Cc2nnc(C(=O)[C@@H](NC(=O)CN3C(=O)N[C@H](CC(C)C)C3=O)C(C)C)o2)c1 [CE2246]
Q. CC(C)[C@H](NC(=O)CN(Cc1ccccc1)C(=O)c1ccc[nH]1)C(=O)c1noc(Cc2cccc(C(F)(F)F)c2)n1 [CE2097]
In: I'd appreciate it if you could identify which of P and Q has the greater pKi. Please identify the chosen entry by its label.
Out: P

A. CC(C)[C@H](NC(=O)CN1C(=O)NC(c2ccc(N(C)C)cc2)C1=O)C(=O)c1noc(Cc2cccc(C(F)(F)F)c2)n1 (stereo partly shown) [CE2200]
B. CC(C)[C@H](NC(=O)[C@@H]1CCCN1C(=O)[C@@H](NC(=O)OCc1ccccc1)C(C)C)C(=O)c1noc(Cc2ccc(-c3ccccc3)cc2)n1 [CE2058]
In: I'd appreciate it if you could identify which of A and B has the greater pKi. Please identify the chosen entry by its label.
Out: B
(B: 9.25, A: 7.86)

---

test: Blood level screening after oral dose; type: in vivo, Sprague-Dawley rats; details: rat, oral gavage 10 mg/kg, 3 hr
Measurement type: Plasma Levels (μM) 3 hr (µM)

Cc1cccc(Cc2nnc(C(=O)[C@@H](NC(=O)CN3C(=O)NC4(CCCC4)C3=O)C(C)C)o2)c1 = 0.787
Cc1cccc(Cc2nnc(C(=O)[C@@H](NC(=O)CN3C(=O)CN=C(c4ccc5c(c4)OCO5)c4ccccc43)C(C)C)o2)c1 = 1.58
Cc1cccc(Cc2nnc(C(=O)[C@@H](NC(=O)CN3C(=O)CN=C(c4ccccc4N(C)C)c4ccccc43)C(C)C)o2)c1 = 1.5
Cc1cccc(Cc2nnc(C(=O)[C@@H](NC(=O)CN3C(=O)N[C@H](C(C)C)C3=O)C(C)C)o2)c1 = 0.97

I. Cc1cccc(Cc2nnc(C(=O)[C@@H](NC(=O)CN3C(=O)NC(C)(c4ccccn4)C3=O)C(C)C)o2)c1 (stereo partly shown)
II. Cc1cccc(Cc2nnc(C(=O)[C@@H](NC(=O)CN3C(=O)N[C@H](CC(C)C)C3=O)C(C)C)o2)c1
III. CC(C)[C@H](NC(=O)CN1C(=O)N[C@H](Cc2ccccc2)C1=O)C(=O)c1noc(Cc2cccc(C(F)(F)F)c2)n1
In: Rank descending by Plasma Levels (μM) 3 hr. Please, when replying, give the labels in the order that was requested.
Out: II, I, III

---

molecular target: human neutrophil elastase (HNE) (Homo sapiens); experiment: HNE Ki of CE compounds, tested as described in WO 96/16080; format: biochemical; conditions: read-out: HNE Ki
Measurement type: Ki (nM)

CC(C)[C@H](NC(=O)[C@@H]1CCCN1C(=O)[C@@H](NC(=O)OCc1ccccc1)C(C)C)C(=O)c1noc(Cc2cccc(Oc3ccccc3)c2)n1 = 0.98
Cc1cccc(Cc2nnc(C(=O)[C@@H](NC(=O)CN3C(=O)N[C@@H](Cc4ccccc4)C3=O)C(C)C)o2)c1 = 10
Cc1cccc(Cc2nnc(C(=O)C(NC(=O)CN3C(=O)CCCC3c3ccc(F)cc3)C(C)C)o2)c1 (stereo not shown) = 20

A. CC(C)C(NC(=O)CN1C(=O)C(c2ccccc2)N(CCN2CCOCC2)C1=O)C(=O)c1noc(Cc2cccc(C(F)(F)F)c2)n1 (stereo not shown)
B. Cc1cccc(Cc2nnc(C(=O)[C@@H](NC(=O)CN3C(=O)NC4(CCCC4)C3=O)C(C)C)o2)c1
C. Cc1cccc(Cc2nnc(C(=O)[C@@H](NC(=O)OCc3ccccc3)C(C)C)o2)c1
D. Cc1cccc(Cc2nnc(C(=O)[C@@H](NC(=O)Cn3c(=O)c(NC(=O)OCc4ccccc4)cc4ccccc43)C(C)C)o2)c1
In: Rank descending by Ki. Please, when replying, give the labels in the order that was requested.
Out: C, A, B, D
(C: 297 nM, A: 36 nM, B: 16 nM, D: 10.5 nM)
